Test system: MS2 coat protein
Assay: apparent KD of MS2 coat protein; designed switch direction (-1 OFF switch, 1 ON switch): -1; higher = weaker reporter binding
Conditions: Eterna round: R98; input ligand: FMN 200 uM
# apparent KD of MS2 coat protein per record follows
Reply numerically in nM, unit not repeated.

## Input Entry under review: GCGUAAUUGAUCCUAUUUACCAACAUGAGGAUCACCCAUGUGCAGGAUAUGCUAAAGAUAGAUAAGCAGAAGGGCAAAUACCGC [JR_ExcNG3_Sub003] . Reported apparent KD of MS2 coat protein?
## Output 252

## Input Which measured apparent KD of MS2 coat protein value corresponds to UAUAUAAUAAGAGCUGGAAAACUCACAUGAGGAUCACCCAUGUAGGAUAUCAGCACGAUAAGUGCUGAGAAGGACAACCAGCUC [Denovo 73] ?
## Output 17

## Input # apparent KD of MS2 coat protein lookup, item GGAUGACAAAGUCAUCCUUAACGAACAUGAGGAUCACCCAUGUAGGAUAUGCUACACAAAGUGUAGCAGAAGGACAUGUGCCUU [Mat - Exclusion NG 3 - JL Mod - D88]
## Output 294
